From: patent US20240415918A1

Molecular target: CCK-B receptors (CHO-CCK) (Homo sapiens, UniProt P32239)
Construct: expressed in transfected cells; host or cells: CHO (CHO-CCK model cells)
Sequence (P32239 1-447): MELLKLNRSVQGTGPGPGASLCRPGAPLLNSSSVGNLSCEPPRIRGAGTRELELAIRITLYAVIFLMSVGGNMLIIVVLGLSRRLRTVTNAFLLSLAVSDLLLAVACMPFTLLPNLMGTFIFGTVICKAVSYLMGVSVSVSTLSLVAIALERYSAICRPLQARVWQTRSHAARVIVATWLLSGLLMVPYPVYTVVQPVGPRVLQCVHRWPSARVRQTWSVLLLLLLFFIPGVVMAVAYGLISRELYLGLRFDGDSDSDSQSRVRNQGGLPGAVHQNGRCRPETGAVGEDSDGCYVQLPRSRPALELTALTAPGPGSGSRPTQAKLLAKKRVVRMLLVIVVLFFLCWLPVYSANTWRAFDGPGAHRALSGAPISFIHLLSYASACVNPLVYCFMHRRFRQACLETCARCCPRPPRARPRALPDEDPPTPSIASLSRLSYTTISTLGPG
Assay: Calcium flux (Fluo-8) agonist test on CHO-CCK model cells
Type: cell-based
Details: CHO-CCK cells, compound alone; 100% = 20 nM CCK8
Where a SMILES comes first, the peptide text is derived from it. [ ]: non-standard residue; d: D form. Phe(3-Br) = N[C@@H](Cc1cccc(Br)c1)C(=O)O
Measured EC50 accompanies every entry in the list below.

| compound | target desc | EC50 |
| --- | --- | --- |
| CSCC[C@H](NC(=O)[C@H](N)Cc1c[nH]c2ccccc12)C(=O)N[C@@H](CC(=O)O)C(=O)N[C@@H](Cc1ccc(C#N)cc1)C(N)=O | CCK-B receptors (CHO-CCK) (Homo sapiens, UniProt P32239) | 1130 nM |
| CSCC[C@H](NC(=O)[C@H](N)Cc1c[nH]c2ccccc12)C(=O)N[C@@H](CC(=O)O)C(=O)N[C@@H](Cc1cccc(F)c1)C(N)=O | CCK-B receptors (CHO-CCK) (Homo sapiens, UniProt P32239) | 155 nM |
| CSCC[C@H](NC(=O)[C@@H](CC(C)C)NC(C)=O)C(=O)N[C@@H](CC(=O)O)C(=O)N[C@@H](Cc1cccc(Br)c1)C(N)=O [HT-183, Ac-D-Leu-Met-Asp-Phe(3-Br)-NH2] (Ac-[dL]MD[Phe(3-Br)]-NH2) | CCK-B receptors (CHO-CCK) (Homo sapiens, UniProt P32239) | 4460 nM |
